Reference for the values: paper PMC10247784

- targetOfAssay: mouse Tas2r108 (Mus musculus)
- Construct: expressed in transfected cells; host or cells: HEK293T-Gα16gust44
- Sequence (Q9JKT3 whole entry): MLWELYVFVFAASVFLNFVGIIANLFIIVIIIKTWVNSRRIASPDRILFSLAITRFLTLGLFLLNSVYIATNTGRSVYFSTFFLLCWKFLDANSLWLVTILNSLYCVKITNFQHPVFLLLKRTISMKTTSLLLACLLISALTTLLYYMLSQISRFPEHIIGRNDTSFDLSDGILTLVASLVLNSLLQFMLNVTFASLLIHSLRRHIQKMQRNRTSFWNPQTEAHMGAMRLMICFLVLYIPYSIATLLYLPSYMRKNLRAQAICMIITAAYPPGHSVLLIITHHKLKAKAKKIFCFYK
- assayExplanation: Calcium imaging assay (FLIPR), HEK293T-Gα16gust44 cells transfected with mouse Tas2r108
- Assay type: cell-based
- statedConditions: Time 6 s
- Method: This set of bile acids was chosen because of their commercial availability in high purities, their diversity within the class of bile acids and their previous detection and quantitation in human blood. Stock solutions were prepared in DMSO. […] Measured data were negative control corrected by subtracting the signal of the mock-transfected cells and exported to Microsoft Excel using the FLIPR software ScreenWorks 4.2. […]
# note: exactly 8 RLU is not below, so it is condition not met; use condition met for RLU strictly under it

Ask: Take the molecule `C[C@H](CCC(=O)NCC(=O)O)[C@H]1CC[C@H]2[C@@H]3[C@H](O)C[C@@H]4C[C@H](O)CC[C@]4(C)[C@H]3C[C@H](O)[C@]12C` and say whether its RLU is less than 8 RLU.
Result: condition not met

Ask: Dear colleague, could you confirm whether RLU of `C[C@H](CCC(=O)O)[C@H]1CC[C@H]2[C@@H]3CC[C@@H]4C[C@H](O)CC[C@]4(C)[C@H]3C[C@H](O)[C@]12C` falls below 8 RLU? Thanks.
Result: condition not met

Ask: For this molecule, is RLU lower than 8 RLU? `C[C@H](CCC(=O)NCCS(=O)(=O)O)[C@H]1CC[C@H]2[C@@H]3CC[C@@H]4C[C@H](O)CC[C@]4(C)[C@H]3CC[C@]12C`
Result: condition met

Ask: Hello, is RLU of the following molecule strictly smaller than 8 RLU? `C[C@H](CCC(=O)NCCS(=O)(=O)O)[C@H]1CC[C@H]2[C@@H]3[C@H](O)C[C@@H]4C[C@H](O)CC[C@]4(C)[C@H]3C[C@H](O)[C@]12C`
Result: condition met

* * *

- targetOfAssay: human TAS2R1 (Homo sapiens, UniProt Q9NYW7)
- Construct: expressed in transfected cells; host or cells: HEK293T-Gα16gust44
- Sequence (Q9NYW7 1-299): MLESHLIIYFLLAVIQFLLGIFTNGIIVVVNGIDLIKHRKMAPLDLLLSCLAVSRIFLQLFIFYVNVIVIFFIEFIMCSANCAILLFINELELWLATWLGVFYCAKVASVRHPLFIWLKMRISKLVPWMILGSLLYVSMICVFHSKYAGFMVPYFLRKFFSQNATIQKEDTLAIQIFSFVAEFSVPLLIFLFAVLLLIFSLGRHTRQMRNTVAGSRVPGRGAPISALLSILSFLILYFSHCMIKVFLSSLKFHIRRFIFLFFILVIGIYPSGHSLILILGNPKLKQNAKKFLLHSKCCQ
- assayExplanation: Calcium imaging assay (FLIPR), HEK293T-Gα16gust44 cells transfected with human TAS2R1
- Assay type: cell-based
- statedConditions: Time 112.781 s
endpointLabel: RLU (RLU)
Answer with a number only, understood to be in RLU.

Ask: Please report the recorded RLU for `C[C@H](CCC(=O)O)[C@H]1CC[C@H]2[C@@H]3CC[C@@H]4C[C@H](O)CC[C@]4(C)[C@H]3C[C@H](O)[C@]12C` .
Result: 368.351

Ask: Record request: RLU value, item `C[C@H](CCC(=O)NCCS(=O)(=O)O)[C@H]1CC[C@H]2[C@@H]3[C@H](O)C[C@@H]4C[C@H](O)CC[C@]4(C)[C@H]3C[C@H](O)[C@]12C`
Result: 338.629

Ask: Entry `C[C@H](CCC(=O)NCC(=O)O)[C@H]1CC[C@H]2[C@@H]3[C@H](O)C[C@@H]4C[C@H](O)CC[C@]4(C)[C@H]3C[C@H](O)[C@]12C` : reported RLU = ?
Result: 487.765

Ask: Could you share which RLU value was measured for `C[C@H](CCC(=O)NCCS(=O)(=O)O)[C@H]1CC[C@H]2[C@@H]3CC[C@@H]4C[C@H](O)CC[C@]4(C)[C@H]3CC[C@]12C` ?
Result: 593.769

* * *

- targetOfAssay: human TAS2R4 (Homo sapiens, UniProt Q9NYW5)
- Construct: expressed in transfected cells; host or cells: HEK293T-Gα16gust44
- Sequence (Q9NYW5 whole entry): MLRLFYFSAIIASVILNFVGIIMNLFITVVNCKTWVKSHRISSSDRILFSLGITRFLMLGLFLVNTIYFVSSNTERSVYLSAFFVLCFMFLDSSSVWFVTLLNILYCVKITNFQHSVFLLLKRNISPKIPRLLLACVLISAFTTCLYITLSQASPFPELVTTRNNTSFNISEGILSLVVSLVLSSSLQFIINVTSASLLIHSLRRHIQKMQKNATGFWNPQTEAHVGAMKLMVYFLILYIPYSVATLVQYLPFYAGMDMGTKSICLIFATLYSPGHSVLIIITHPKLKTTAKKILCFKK
- assayExplanation: Calcium imaging assay (FLIPR), HEK293T-Gα16gust44 cells transfected with human TAS2R4; note: test concentration or dose not given here
- Format: cell-based
- statedConditions: Time (s) 98.781 (TCA, TLCA: 98.782)
endpointLabel: RLU, fluorescence trace (RLU)
# value in RLU; strip the unit string

Ask: Given the entry `C[C@H](CCC(=O)O)[C@H]1CC[C@H]2[C@@H]3CC[C@@H]4C[C@H](O)CC[C@]4(C)[C@H]3C[C@H](O)[C@]12C` , report its measured RLU, fluorescence trace.
Result: 356.212

Ask: I'd like to know its RLU, fluorescence trace. The compound in question is `C[C@H](CCC(=O)NCCS(=O)(=O)O)[C@H]1CC[C@H]2[C@@H]3[C@H](O)C[C@@H]4C[C@H](O)CC[C@]4(C)[C@H]3C[C@H](O)[C@]12C`
Result: 653.956

Ask: Form field: reported RLU, fluorescence trace of `C[C@H](CCC(=O)O)[C@H]1CC[C@H]2[C@@H]3[C@@H](O)C[C@@H]4C[C@H](O)CC[C@]4(C)[C@H]3CC[C@]12C`
Result: 298.819

Ask: Entry `C[C@H](CCC(=O)NCCS(=O)(=O)O)[C@H]1CC[C@H]2[C@@H]3CC[C@@H]4C[C@H](O)CC[C@]4(C)[C@H]3CC[C@]12C` has what RLU, fluorescence trace?
Result: 268.467

Ask: Any idea what its RLU, fluorescence trace is? The compound is `C[C@H](CCC(=O)NCC(=O)O)[C@H]1CC[C@H]2[C@@H]3[C@H](O)C[C@@H]4C[C@H](O)CC[C@]4(C)[C@H]3C[C@H](O)[C@]12C`
Result: 653.577

Ask: Dear colleague, I am looking for the recorded RLU, fluorescence trace of the following compound: `C[C@H](CCC(=O)O)[C@H]1CC[C@H]2[C@@H]3[C@H](O)C[C@@H]4C[C@H](O)CC[C@]4(C)[C@H]3C[C@H](O)[C@]12C`
Result: 590.83

* * *

- targetOfAssay: mouse Tas2r105 (Mus musculus, UniProt Q9JKT4)
- Construct: expressed in transfected cells; host or cells: HEK293T-Gα16gust44
- Sequence (Q9JKT4 1-300): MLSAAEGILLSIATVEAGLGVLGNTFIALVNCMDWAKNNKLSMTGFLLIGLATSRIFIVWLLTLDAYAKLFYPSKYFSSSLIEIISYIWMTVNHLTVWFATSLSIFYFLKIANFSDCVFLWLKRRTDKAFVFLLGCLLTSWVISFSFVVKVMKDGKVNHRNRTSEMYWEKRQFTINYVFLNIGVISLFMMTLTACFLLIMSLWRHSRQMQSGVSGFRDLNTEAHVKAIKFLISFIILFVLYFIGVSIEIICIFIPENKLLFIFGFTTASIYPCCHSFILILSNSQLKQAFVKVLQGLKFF
- assayExplanation: Calcium imaging assay (FLIPR), HEK293T-Gα16gust44 cells transfected with mouse Tas2r105
- Type: cell-based
- statedConditions: Time 18.781 s
Please provide measured RLU for the entries that follow.
Your answer is read as RLU, so omit the unit and give the number.

Ask: Entry under review: `C[C@H](CCC(=O)O)[C@H]1CC[C@H]2[C@@H]3[C@H](O)C[C@@H]4C[C@H](O)CC[C@]4(C)[C@H]3C[C@H](O)[C@]12C` . Reported RLU?
Result: 21.6772

Ask: Endpoint output: RLU of `C[C@H](CCC(=O)O)[C@H]1CC[C@H]2[C@@H]3CC[C@@H]4C[C@H](O)CC[C@]4(C)[C@H]3C[C@H](O)[C@]12C` . Value?
Result: -20.0658

Ask: I'd like to know its RLU. The compound in question is `C[C@H](CCC(=O)NCC(=O)O)[C@H]1CC[C@H]2[C@@H]3[C@H](O)C[C@@H]4C[C@H](O)CC[C@]4(C)[C@H]3C[C@H](O)[C@]12C`
Result: -3.899

Ask: Which value of RLU has been reported for `C[C@H](CCC(=O)O)[C@H]1CC[C@H]2[C@@H]3CC[C@@H]4C[C@H](O)CC[C@]4(C)[C@H]3CC[C@]12C` in the records?
Result: 8.9

* * *

For each entry below, report its RLU value.
- targetOfAssay: human TAS2R1 (Homo sapiens)
- Construct: expressed in transfected cells; host or cells: HEK293T-Gα16gust44
- Sequence (Q9NYW7 1-299): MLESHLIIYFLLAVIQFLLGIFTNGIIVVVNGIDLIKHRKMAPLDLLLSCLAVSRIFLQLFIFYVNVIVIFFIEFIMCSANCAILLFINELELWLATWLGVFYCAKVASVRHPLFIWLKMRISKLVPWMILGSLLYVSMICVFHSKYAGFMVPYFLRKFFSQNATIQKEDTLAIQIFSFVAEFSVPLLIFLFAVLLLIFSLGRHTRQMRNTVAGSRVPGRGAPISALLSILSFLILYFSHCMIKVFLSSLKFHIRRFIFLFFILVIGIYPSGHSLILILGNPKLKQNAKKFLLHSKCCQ
- assayExplanation: Calcium imaging assay (FLIPR), HEK293T-Gα16gust44 cells transfected with human TAS2R1
- Type: cell-based
- statedConditions: Time 126.781 s
The reply must contain the numeric value and, after it, the unit.

Ask: Record request: RLU value, item C[C@H](CCC(=O)NCCS(=O)(=O)O)[C@H]1CC[C@H]2[C@@H]3[C@H](O)C[C@@H]4C[C@H](O)CC[C@]4(C)[C@H]3C[C@H](O)[C@]12C [Taurocholic Acid, taurocholic acid]
Result: 280.428 RLU

Ask: # input compound: C[C@H](CCC(=O)O)[C@H]1CC[C@H]2[C@@H]3CC[C@@H]4C[C@H](O)CC[C@]4(C)[C@H]3C[C@H](O)[C@]12C [Deoxycholic Acid, deoxycholic acid] ; wanted: its RLU
Result: 357.113 RLU

Ask: Reported RLU for C[C@H](CCC(=O)NCC(=O)O)[C@H]1CC[C@H]2[C@@H]3[C@H](O)C[C@@H]4C[C@H](O)CC[C@]4(C)[C@H]3C[C@H](O)[C@]12C [Glycocholic Acid, glycocholic acid] : what is it?
Result: 442.632 RLU

Ask: Please report the recorded RLU for C[C@H](CCC(=O)NCCS(=O)(=O)O)[C@H]1CC[C@H]2[C@@H]3CC[C@@H]4C[C@H](O)CC[C@]4(C)[C@H]3CC[C@]12C [Taurolithocholic Acid, taurolithocholic acid] .
Result: 474.132 RLU
